target: DPP-IV (Homo sapiens, UniProt P27487); construct: Soluble human DPP-IV lacking the transmembrane anchor (Gly31-Pro766); Pre-Pro-alpha-mating factor leader (secretion fusion) (N, cleaved yes); made in house; experiment: Continuous fluorimetric assay of inhibition of DPP-IV peptidase activity (Gly-Pro-AMC cleavage); assay type: biochemical; conditions: 50 pM DPP-IV, 16 μM Gly-Pro-AMC, pH 7.4, 25° C.; values grouped in 2 classes; read-out: IC50 for inhibition of DPP-IV peptidase activity
Sequence (P27487 31-766): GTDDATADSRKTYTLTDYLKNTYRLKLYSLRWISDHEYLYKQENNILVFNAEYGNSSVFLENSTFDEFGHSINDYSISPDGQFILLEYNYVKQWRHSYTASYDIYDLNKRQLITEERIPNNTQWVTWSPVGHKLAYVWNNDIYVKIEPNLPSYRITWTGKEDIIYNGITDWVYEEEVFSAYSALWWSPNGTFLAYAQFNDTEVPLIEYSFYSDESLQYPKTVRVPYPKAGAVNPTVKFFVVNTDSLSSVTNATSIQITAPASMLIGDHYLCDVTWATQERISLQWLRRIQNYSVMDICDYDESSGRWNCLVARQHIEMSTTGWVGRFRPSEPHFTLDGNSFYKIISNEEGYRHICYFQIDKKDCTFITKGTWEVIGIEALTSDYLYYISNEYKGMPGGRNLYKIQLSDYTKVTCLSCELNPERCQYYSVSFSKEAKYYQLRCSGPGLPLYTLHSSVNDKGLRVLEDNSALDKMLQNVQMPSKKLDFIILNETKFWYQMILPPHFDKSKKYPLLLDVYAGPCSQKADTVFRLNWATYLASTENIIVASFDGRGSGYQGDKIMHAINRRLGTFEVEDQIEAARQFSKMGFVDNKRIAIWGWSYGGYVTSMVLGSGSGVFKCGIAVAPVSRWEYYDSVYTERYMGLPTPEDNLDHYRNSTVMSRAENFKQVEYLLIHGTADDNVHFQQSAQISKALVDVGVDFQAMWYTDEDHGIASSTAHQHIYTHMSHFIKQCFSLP
READOUT: IC50

Previously resolved entries follow.
>  <COMPOUND>
N[C@@H](CC(=O)N1CCCC1Cc1ccccn1)Cc1ccccc1F (some centres unmarked)

>  <IC50>
< 500 nM

$$$$
>  <COMPOUND>
COc1cc(OC)nc(C2CCN(C(=O)C[C@H](N)Cc3ccccc3F)CC2)n1

>  <IC50>
< 500 nM

$$$$
>  <COMPOUND>
N[C@H](Cc1ccccc1F)CS(=O)(=O)N1CCC[C@H]1CNS(=O)(=O)c1ccccc1

>  <IC50>
< 500 nM

$$$$
>  <COMPOUND>
COc1ccc(C2CCN(C(=O)C[C@H](N)Cc3ccccc3F)CC2)cc1

>  <IC50>
< 500 nM

$$$$

QUERY: Tell us which IC50 value is on record for N[C@@H](CC(=O)N1CCCC1Cc1cccc(Cl)c1)Cc1ccccc1F (some centres unmarked)
RESULT: < 500 nM
